Experiment: physchem
Conditions: pH 4.5, aqueous buffer, thermodynamic from solid, 24 hr Equilibrium Solubility
Reported metric: solubility thermodynamic at 24 h

The reported value for CO[C@H]1C[C@H]2CC[C@@H](C1)N2c1nc(-c2c(C)ccc3[nH]nc(C)c23)nc2c1CN(c1cc(C(C)C)ccc1C)CC2 [Example 19-F] in terms of solubility thermodynamic at 24 h is < 0.5 µg/mL

* * *

Molecular target: UniProt:P21730
Assay: FLIPR assay: inhibition of C5a-mediated calcium mobilization
Format: cell-based
Conditions: stable cell line over expressing human C5aR & Gα15, human C5a at EC50 (0.1-0.25 nM)
Protocol: Compounds were tested for their ability to inhibit C5a-mediated calcium mobilization using a stable cell line over expressing the human C5aR & the Gα15 protein on the FLIPR (Fluorescent Imaging Plate Reader) Tetra system. Cells were maintained in culture media containing DMEM (Dulbecco's Modified Eagle Medium) with 4.5 g/L glucose, 10% fetal bovine serum, 100 U/mL, 1× non-essential amino acid, and 250 μg/mL G418 (Geneticin). […]
In plain terms, low IC50, meaning strictly below 5 nM, gives t, and everything else gives f.

Confirm or reject: IC50 of CCOC1CN(c2nc(-c3c(C)ccc4[nH]nc(C)c34)nc3c2CN(c2c(Cl)c(C4CC4)nn2C)CC3)C1 [Example 68-B] lies strictly below 5 nM
t

Confirm or reject: IC50 of [2H]C1([2H])c2c(C)cc(-c3cccc4[nH]cc(C)c34)nc2CCN1c1cc(C(C)C)ccc1C [Example 40-S] lies strictly below 5 nM
f

Confirm or reject: IC50 of Cc1ccc(C(C)C)cc1N1CCc2nc(-c3cccc4[nH]cc(C)c34)nc(N3CCC[C@@H]3CO)c2C1 [Example 17-AZ] lies strictly below 5 nM
f

Confirm or reject: IC50 of CO[C@@H]1CCN(c2nc(-c3c(C)ccc4[nH]nc(C)c34)nc3c2CN(c2c(Cl)c(C(F)(F)F)nn2C)CC3)CC1(C)C [Example 55-N] lies strictly below 5 nM
f

Confirm or reject: IC50 of Cc1ccc(C(C)C)cc1N1CCc2nc(-c3c(C)ccc4[nH]nc(C)c34)nc(N3CCC3C)c2C1 (single isomer, unassigned) [Example 65-I] lies strictly below 5 nM
t

Confirm or reject: IC50 of COCCCOc1nc(-c2c(C)cccc2C)nc2c1CN(c1cc(C(C)C)ccc1C)CC2 [Example 39-D] lies strictly below 5 nM
f

Confirm or reject: IC50 of CO[C@H]1CCN(c2nc(-c3c(C(C)C)ccc4[nH]ncc34)nc3c2CN(c2cc(C4(C)COC4)ccc2C)CC3)CC1(C)C [Example 19-AC] lies strictly below 5 nM
t

Confirm or reject: IC50 of CO[C@H]1CCN(c2nc(-c3cccc4[nH]cc(C)c34)nc3c2CN(c2cc(C(C)C)ccc2C)CC3)[C@H](C)C1 [Example 17-P] lies strictly below 5 nM
f

Confirm or reject: IC50 of CO[C@H]1C[C@H]2CC[C@@H](C1)N2c1nc(-c2cccc3[nH]cc(C)c23)nc2c1CN(c1cc(C(C)C)ccc1C)CC2 [Example 17-AS] lies strictly below 5 nM
f

Confirm or reject: IC50 of [2H]C1([2H])c2c(C)cc(-c3c(C)ccc4[nH]ncc34)nc2CCN1c1cc(OC)ccc1C [Example 45] lies strictly below 5 nM
f

Confirm or reject: IC50 of CO[C@@H]1CCN(c2nc(-c3c(C)ccc4[nH]nc(C)c34)nc3c2CN(c2cc(C(F)(F)F)ccc2C)CC3)CC1(C)C [Example 21-AJ] lies strictly below 5 nM
f

Confirm or reject: IC50 of CO[C@@H]1CCN(c2nc(-c3c(C)ccc4[nH]nc(C)c34)nc3c2CN(c2c(F)c(C(F)F)nn2C)CC3)CC1(C)C [Example 56-F] lies strictly below 5 nM
t

Confirm or reject: IC50 of CO[C@H]1CCN(c2nc(-c3ccccc3C(F)(F)F)nc3c2CN(c2cc(C4CC4)ccc2C)CC3)CC1(C)C [Example 19-K] lies strictly below 5 nM
f

Confirm or reject: IC50 of CO[C@@H]1CCN(c2nc(-c3c(C)ccc4[nH]nc(C)c34)nc3c2CN(c2c(Cl)c(C4CC4)nn2C)CC3)[C@H](C)C1 [Example 55-M] lies strictly below 5 nM
t

Confirm or reject: IC50 of CCn1nc(C)c(N2CCc3nc(-c4c(C)ccc5[nH]ncc45)cc(C)c3C2)c1C [Example 40-P] lies strictly below 5 nM
f

Confirm or reject: IC50 of COCCN(C)c1cc(-c2c(C)cccc2C)nc2c1CN(c1cc(C(C)C)ccc1C)CC2 [Example 51-D] lies strictly below 5 nM
f

* * *

Assay: physchem
Settings: water, thermodynamic from solid, 24 hr Equilibrium Solubility
Reported metric: solubility thermodynamic at 24 h

The reported value for CO[C@H]1C[C@H]2CC[C@@H](C1)N2c1nc(-c2c(C)ccc3[nH]nc(C)c23)nc2c1CN(c1cc(C(C)C)ccc1C)CC2 in terms of solubility thermodynamic at 24 h is < 0.5 µg/mL

* * *

Target: human C5aR (Homo sapiens (Human), UniProt P21730)
Sequence (P21730 whole entry): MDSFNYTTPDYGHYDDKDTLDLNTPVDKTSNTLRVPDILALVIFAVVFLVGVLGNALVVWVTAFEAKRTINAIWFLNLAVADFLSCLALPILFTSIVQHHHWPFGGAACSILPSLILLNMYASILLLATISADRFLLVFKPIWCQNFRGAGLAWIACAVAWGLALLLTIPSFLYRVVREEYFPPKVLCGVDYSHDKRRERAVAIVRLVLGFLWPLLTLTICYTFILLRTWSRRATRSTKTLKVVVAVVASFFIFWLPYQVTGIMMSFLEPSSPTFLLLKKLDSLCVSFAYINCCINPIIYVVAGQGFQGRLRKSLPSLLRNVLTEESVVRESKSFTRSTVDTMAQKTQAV
Assay: FLIPR assay: inhibition of C5a-mediated calcium mobilization
Conditions: stable cell line over expressing human C5aR & Gα15, human C5a at EC50 (0.1-0.25 nM)
In plain terms, low IC50, meaning strictly below 50 nM, gives 1.0, and everything else gives 0.0.

Confirm or reject: IC50 of CO[C@@H]1CCN(c2nc(-c3cccc4[nH]cc(C)c34)nc3c2CN(c2cc(Cl)ccc2C)CC3)CC1(C)C lies strictly below 50 nM
0.0

Confirm or reject: IC50 of Cc1ccccc1N1CCc2nc(-c3c(C)cccc3C)nc(N(C)C)c2C1 lies strictly below 50 nM
0.0

Confirm or reject: IC50 of Cc1cccc(C)c1-c1nc2c(c(N3CCCC(C)(C)C3)n1)CN(c1cc(C(C)C)nn1C)CC2 lies strictly below 50 nM
1.0

Confirm or reject: IC50 of CO[C@@H]1CCN(c2nc(-c3c(C)cccc3Cl)nc3c2CN(c2cc(C(C)C)ccc2C)CC3)C[C@H]1C lies strictly below 50 nM
1.0

Confirm or reject: IC50 of Cc1ccc(C(C)C)cc1N1CCc2nc(-c3cccc4[nH]cc(C)c34)cc(C)c2C1 lies strictly below 50 nM
0.0

Confirm or reject: IC50 of [2H]C1([2H])c2c(C)cc(-c3cccc4[nH]cc(C)c34)nc2CCN1c1c(C)cccc1C lies strictly below 50 nM
1.0

Confirm or reject: IC50 of COc1ccc(Cl)c(-c2cc(C)c3c(n2)CCN(c2cc(C(C)C)ccc2C)C3)c1 lies strictly below 50 nM
0.0

* * *

System: CD11b
Assay: Human whole blood CD11b up-regulation assay
Type: cell-based
Conditions: Homo sapiens, 2 nM human C5a, CD15+ granulocytes, read-out: hCD11b IC50
pIC50: −log10 of the molar value.
Entry flag: t if pIC50 reaches 7; f if it does not.

Textbook exercise: given the entry CC(=O)N1CCN(c2nc(-c3cccc4[nH]cc(C)c34)nc3c2CN(c2cc(C4CC4)ccc2C)CC3)[C@H](C)C1 [Example 25-C] , state whether its pIC50 is greater than or equal to 7.
f

Textbook exercise: given the entry Cc1cc(-c2c(C(C)C)ccc3[nH]ncc23)nc2c1CN(c1cc(C3CC3)nn1C)CC2 [Example 46-A] , state whether its pIC50 is greater than or equal to 7.
f

Textbook exercise: given the entry Cc1ccc(C(C)C)cc1N1CCc2nc(-c3c(C)ccc4[nH]nc(C)c34)nc(N3CCC3C)c2C1 (single isomer, unassigned) [Example 65-I] , state whether its pIC50 is greater than or equal to 7.
t

Textbook exercise: given the entry CO[C@@H]1CCN(c2nc(-c3c(C)ccc4[nH]nc(C)c34)nc3c2CN(c2cc(C(C)C)ccc2C)CC3)[C@H](C)C1 [Example 21-Q] , state whether its pIC50 is greater than or equal to 7.
t

Textbook exercise: given the entry CNCCOc1nc(-c2c(C)ccc3[nH]nc(C)c23)nc2c1CN(c1cc(C(C)C)ccc1C)CC2 [Example 63-G] , state whether its pIC50 is greater than or equal to 7.
f

Textbook exercise: given the entry Cc1ccc2[nH]nc(C)c2c1-c1nc2c(c(N3CC[C@H]4OC[C@H]4C3)n1)CN(c1c(Cl)c(C3CC3)nn1C)CC2 (racemic) [Example 69-M] , state whether its pIC50 is greater than or equal to 7.
t

Textbook exercise: given the entry CO[C@@H]1CCN(c2nc(-c3c(C)ccc4[nH]nc(C)c34)nc3c2CN(c2c(Cl)c(C4CC4)nn2C)CC3)[C@H](C)C1 [Example 55-M] , state whether its pIC50 is greater than or equal to 7.
t

Textbook exercise: given the entry CO[C@@H]1CCN(c2nc(-c3cc(C)ccc3C)nc3c2CN(c2cc(C(C)C)ccc2C)CC3)[C@H](C)C1 [Example 21-E] , state whether its pIC50 is greater than or equal to 7.
f

Textbook exercise: given the entry Cc1ccc(C(C)C)cc1N1CCc2nc(-c3c(C)ccc4[nH]nc(C)c34)nc(N3CCCC[C@H]3C)c2C1 [Example 21-AM] , state whether its pIC50 is greater than or equal to 7.
t

Textbook exercise: given the entry Cc1cc(-c2c(C(C)C)ccc3[nH]ncc23)nc2c1CN(c1c(Cl)c(C3CC3)nn1C)CC2 [Example 46-B] , state whether its pIC50 is greater than or equal to 7.
f

Textbook exercise: given the entry CO[C@H]1C[C@H]2CC[C@@H](C1)N2c1nc(-c2c(C)ccc3[nH]nc(C)c23)nc2c1CN(c1c(F)c(C3CC3)nn1C)CC2 [Example 56-B] , state whether its pIC50 is greater than or equal to 7.
t

Textbook exercise: given the entry CO[C@H]1CCN(c2nc(-c3c(C)ccc4[nH]nc(C)c34)nc3c2CN(c2c(F)c(C4CC4)nn2C)CC3)CC1(C)C [Example 56-C] , state whether its pIC50 is greater than or equal to 7.
t

Textbook exercise: given the entry CCn1nc(C2CC2)c(Cl)c1N1CCc2nc(-c3c(C)ccc4[nH]nc(C)c34)nc(N3CC(N(C)C)C3)c2C1 [Example 70-K] , state whether its pIC50 is greater than or equal to 7.
t
